Values compiled from a melting point compilation (Tetko et al.; mined from patent text by program, amines drawn as free bases though some values may be those of a salt).

Kindly state melting point for each of the entries shown.

CC(=O)Nc1ccccc1NS(=O)(=O)c1cc(C(=O)O)cc([N+](=O)[O-])c1Oc1ccccc1    224 to 226 °C
Cn1c(COc2ccc(CC3SC(=O)NC3=O)cc2)nc2ccc(Oc3ccc(NC(=O)c4ccc5ccccc5c4)cc3)cc21 (stereo not given)    221 to 223 °C
O=Cc1ccc(Cl)cc1C1(c2ccccc2F)OCCO1    103 to 105 °C

Each of the following entries comes with a recorded value; kindly state melting point for each.
1. Cc1ccc(-n2cc(C(=O)O)c(=O)c3cc(F)c(F)c(F)c32)cc1
2. COc1ccc(-c2cc3cc(OC)cc(C(C)(C)C#N)c3o2)cc1
3. O=C(CCl)Nc1ccc2c(c1NC(=O)Cc1ccccc1)C(=O)c1ccccc1C2=O
4. CN(c1cccc2cc(-c3ncc(CC(=O)N4CCOCC4)s3)[nH]c12)S(=O)(=O)c1cccs1
5. COc1cc(C(=O)NS(=O)(=O)c2ccccc2Cl)ccc1Cc1c(Cl)n(C)c2ccc(CC(C)NC(=O)N(C)C)cc12 (stereo not given)
6. C#Cc1ccc(CO[C@@H]2COc3nc([N+](=O)[O-])cn3C2)cc1
7. O=C(NC1CCCCC1)c1ccc(F)c2c1CC(N(CCCc1c[nH]c3ccc(F)cc13)C1CCC1)CO2 (stereo not given)

output:
110 to 111 °C
146 to 148 °C
184 to 185 °C
199 to 200 °C
126 to 136 °C
162 to 164 °C
134 °C
